Values compiled from PubChem BioAssay AID1963434.

# viability, T/C values compiled below
# Tested on: 755483-174-R-J1-PDC complex spheroid growth, percent test/control;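 further: spheroids exposed to compounds for seven days before readout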
# Assay Summary: Anticancer human tumor 755483-174-R-J1-PDC patient-derived rhabdomyosarcoma cell line growth inhibition [Asc]
# Experimental Parameters: second compound 0.1 µM; first compound 10 µM; active compounds read low
Measurement Label: viability, T/C (%)

• O=C(c1cc(Cc2n[nH]c(=O)c3ccccc23)ccc1F)N1CCN(C(=O)C2CC2)CC1 + CNC(C)C(=O)NC1CN(S(=O)(=O)c2cccc(S(=O)(=O)N3CCC4CCC(C(=O)NC(c5ccccc5)c5ccccc5)N4C(=O)C(NC(=O)C(C)NC)C3)c2)CCC2CCC(C(=O)NC(c3ccccc3)c3ccccc3)N2C1=O = 7.57
• C=C(F)C(=O)N1CCN(c2nc(OCC3CCCN3C)nc3c2CCN(c2cccc4cccc(Cl)c24)C3)CC1CC#N (stereo not drawn) + Cc1c(S(C)(=O)=O)c(-c2cc(F)cc(N3CCN(c4ccc(NS(=O)(=O)c5ccc(NC(CCN6CCC(C(=O)OCCCP(=O)(O)O)CC6)CSc6ccccc6)c(S(=O)(=O)C(F)(F)F)c5)cc4)CC3)c2)c(-c2ccc(Cl)cc2)n1C(C)C = 0.1
• C#Cc1c(F)ccc2cc(O)cc(-c3ncc4c(N5CC6CCC(C5)N6)nc(OCC56CCCN5CC(F)C6)nc4c3F)c12 (stereo not drawn) + CNC(C)C(=O)NC1CN(S(=O)(=O)c2cccc(S(=O)(=O)N3CCC4CCC(C(=O)NC(c5ccccc5)c5ccccc5)N4C(=O)C(NC(=O)C(C)NC)C3)c2)CCC2CCC(C(=O)NC(c3ccccc3)c3ccccc3)N2C1=O = 1.01
